- Experimental Protocol: Aqueous solubility of the compound
- Type: physicochemical
- Experimental Conditions: buffer
Measurement Name: solubility (µM)
Lab book: enter the figure in µM, no units written.

> print(dat)
                              smiles.string  number
1  CC(C)(C)c1ccc(C(=O)Nc2cc3c(cc2O)CCCCC3)cc1       1
2  CC(C)(C)c1ccc(C(=O)Nc2cc3c(cc2OC(F)(F)F)CCCCC3)cc1       8
3  COc1nc2c(cc1C(=O)Nc1ncc(C(C)(C)C)cn1)CCCCC2      64

Shifting focus to the compound that follows.
Any idea what solubility was measured for CC(C)(C)c1ccc(C(=O)Nc2ccc3c(c2)CCCCC3)cc1 ?
35

Just for reference, ChEMBL document CHEMBL4834424 is where these values come from.
